TARGET UNDER TEST: T1, biotinylated GITR (human, UniProt Q9Y5U5 26-161, limits assumed, biotinylated (sites not given))
T1 construct: also called GITR-bio; Biotin-GITR
T1 sequence: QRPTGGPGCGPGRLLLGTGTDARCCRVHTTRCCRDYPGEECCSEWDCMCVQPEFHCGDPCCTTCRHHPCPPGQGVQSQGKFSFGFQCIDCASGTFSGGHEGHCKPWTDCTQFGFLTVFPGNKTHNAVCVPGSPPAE
TEST DESCRIPTION: BLI (Octet), biotin-GITR on streptavidin tips, antibody supernatant
MEASURED ATTRIBUTE: kon (M⁻¹ s⁻¹)
All answers are understood in M⁻¹ s⁻¹, so give the number only.

Please give the measured kon for this binder: germline variant antibody 95 (H1917G05 / K1917G05) (antibody, V domains shown, IGHG1/IGKC expression vectors; measured from CHO culture supernatant; also called Antibody ID 95) VH: QVQLVQSGAEVKKPGASVKVSCKGSGYTFTDYAMYWVRQAPGQGLEWMGLIRTYSGGVSYNQKFRGRVTMTVDTSISTAYMELSRLRSDDTAVYYCAKSGTVRGFAYWGQGTFVTVSS VL: DIVMTQSPDSLAVSLGERATINCKSSQSLLNSGNQKNYLTWYQQKPGQPPKMLIYWASTRESGVPDRFSGSGSGTDFTLTISSVQAEDVAVYHCQNDYSFPYTFGQGTKLEIK 305000

src = patent US20210070872A1
